Hey, just so you know, these numbers are from ChEMBL document CHEMBL1126878.

Reported dP/dt20 by item:
System: Cavia porcellus
ASSAY_PROCEDURE: In vivo index of cardiac contractility using paced guinea pig model
Type: functional

{"columns": ["COMPOUND", "dP/dt20 / mg/kg"],
 "data": [
  ["CCOC(=O)C1(c2ccccc2)N=C(CC)N(C)Cc2ccccc21.O=C(O)/C=C/C(=O)O (stereo unspecified)", 0.1],
  ["CN1Cc2ccccc2C(C)(c2ccccc2)N=C1CCl (stereo unspecified)", 0.002],
  ["CC1=NC(c2ccccc2)c2ccccc2CN1C (stereo unspecified)", 0.9],
  ["CN(C)CC1=NC(C)(c2ccccc2)c2ccccc2CN1C (stereo unspecified)", 0.02],
  ["O=C(NCC1CCCCN1)c1cc(OCC(F)(F)F)ccc1OCC(F)(F)F (stereo unspecified) [FLECAINIDE]", 1.8],
  ["CN1Cc2ccccc2C(c2ccc(Cl)cc2)N=C1CCc1ccccc1 (stereo unspecified)", 0.2],
  ["CN1CCN(CC2=NC(c3ccccc3)c3ccccc3CN2C)CC1.O=C(O)/C=C/C(=O)O (stereo unspecified)", 0.1],
  ["CCCCCCCCC1=NC(c2ccccc2)c2ccccc2CN1C.Cl (stereo unspecified)", 0.1],
  ["CN1Cc2ccccc2C(c2ccccc2)N=C1Cc1ccccc1.Cl (stereo unspecified)", 0.15],
  ["CCC1=NC(c2ccccc2)c2ccc3ccccc3c2CN1C (stereo unspecified)", 0.06],
  ["CN1Cc2ccccc2C(c2ccccc2)N=C1N1CCOCC1.Cl (stereo unspecified)", 0.4],
  ["CCCCC1=NC(c2ccccc2)c2ccccc2CN1C.Cl (stereo unspecified)", 0.1],
  ["CCC1=NC(c2ccccc2)c2ccccc2CN1C.Cl (stereo unspecified)", 0.8],
  ["CCN(CC)CCNC1=NC(c2ccccc2)c2ccccc2CN1C.O=C(O)/C=C/C(=O)O (stereo unspecified)", 0.9],
  ["CC(C)NCC(O)c1ccc(NS(C)(=O)=O)cc1 (stereo unspecified)", 1.9],
  ["CCC1=NC(c2ccccc2)c2ccccc2CN1.Cl (stereo unspecified)", 0.2],
  ["CCOC(=O)CC1=NC(C)(c2ccccc2)c2ccccc2CN1C (stereo unspecified)", 0.007],
  ["CCC1=NC(c2ccccc2)c2ccccc2CN1Cc1ccccc1.Cl (stereo unspecified)", 0.2],
  ["CN1Cc2ccccc2C(c2ccccc2)N=C1CCc1ccc(Cl)cc1.O=C(O)/C=C/C(=O)O (stereo unspecified)", 0.85],
  ["CN1Cc2ccccc2C(c2ccccc2)N=C1N.Cl (stereo unspecified)", 1],
  ["CN1Cc2ccccc2C(c2ccccc2)N=C1CN1CCCCC1.O=C(O)/C=C/C(=O)O (stereo unspecified)", 0.002],
  ["CC(C)C1=NC(C)(c2ccccc2)c2ccccc2CN1C (stereo unspecified)", 0.7],
  ["CCN(CC)CC(=O)Nc1c(C)cccc1C", 4.3],
  ["CC(C)N(CCC(C(N)=O)(c1ccccc1)c1ccccn1)C(C)C (stereo unspecified) [DISOPYRAMIDE]", 0.03],
  ["CN1Cc2ccccc2C(C)(c2ccccc2)N=C1CC(O)c1ccccc1 (stereo unspecified)", 0.1],
  ["CCC1=NC(C)(c2ccccc2)c2ccccc2CN1C.O=C(O)/C=C/C(=O)O (stereo unspecified)", 1.2],
  ["CCC1=NC(CC)(c2ccccc2)c2ccccc2CN1C (stereo unspecified)", 0.1],
  ["CCC1=N[C@H](c2ccccc2)c2ccccc2CN1C.Cl", 0.3],
  ["CN1Cc2ccccc2C(C)(c2ccccc2)N=C1CCc1ccccc1 (stereo unspecified)", 0.9],
  ["CN1Cc2ccccc2C(c2ccccc2)N=C1CN1CCOCC1.O=C(O)/C=C/C(=O)O (stereo unspecified)", 0.11],
  ["CCN(CC)CC1=NC(C)(c2ccccc2)c2ccccc2CN1C.Cl (stereo unspecified)", 0.01],
  ["CCN(CC)CCNC(=O)c1ccc(NS(C)(=O)=O)cc1 [SEMATILIDE]", 18.7],
  ["CC1=NC(C)(c2ccccc2)c2ccccc2CN1C.O=C(O)/C=C/C(=O)O (stereo unspecified)", 0.9],
  ["CCC1=NC(c2ccccc2)c2ccccc2C(c2ccccc2)N1C (stereo unspecified)", 0.01],
  ["COc1ccc(OCC2=NC(c3ccccc3)c3ccccc3CN2C)cc1.Cl (stereo unspecified)", 0.48],
  ["CN1Cc2ccccc2C(c2ccccc2)N=C1CCC1CCCCC1.Cl (stereo unspecified)", 0.66],
  ["CN1Cc2ccccc2[C@H](c2ccccc2)N=C1CCc1ccccc1.Cl", 0.02],
  ["CN1C=NC(c2ccccc2)c2ccccc2C1 (stereo unspecified)", 0.9],
  ["CCC1=NC(c2ccccc2)c2ccccc2CN1C(C)C.Cl (stereo unspecified)", 0.15],
  ["CCC1=NC(c2cccc3ccccc23)c2ccccc2CN1C (stereo unspecified)", 0.2],
  ["CCC1=NCc2ccccc2C(c2ccccc2)N1Cc1ccccc1.Cl (stereo unspecified)", 0.3],
  ["CCC1=NC(C(C)=O)(c2ccccc2)c2ccccc2CN1C.O=C(O)/C=C/C(=O)O (stereo unspecified)", 0.45],
  ["CN1Cc2ccccc2C(c2ccccc2)N=C1c1ccccc1 (stereo unspecified)", 1.1],
  ["CN1Cc2ccccc2C(C)(c2ccccc2)N=C1CN1CCOCC1 (stereo unspecified)", 0.1],
  ["CCCC1=NC(c2ccccc2)c2ccccc2CN1C.Cl (stereo unspecified)", 0.8],
  ["CCC1=NC(COC)(c2ccccc2)c2ccccc2CN1C (stereo unspecified)", 0.1]
]}
